biological target: Telomerase reverse transcriptase (Homo sapiens, UniProt O14746); assay: Inhibition of TERT activity in human H1299 cells homogenates incubated for 5 mins at 100 uM by TRAP assay; type: cell-free
Sequence (O14746 whole entry): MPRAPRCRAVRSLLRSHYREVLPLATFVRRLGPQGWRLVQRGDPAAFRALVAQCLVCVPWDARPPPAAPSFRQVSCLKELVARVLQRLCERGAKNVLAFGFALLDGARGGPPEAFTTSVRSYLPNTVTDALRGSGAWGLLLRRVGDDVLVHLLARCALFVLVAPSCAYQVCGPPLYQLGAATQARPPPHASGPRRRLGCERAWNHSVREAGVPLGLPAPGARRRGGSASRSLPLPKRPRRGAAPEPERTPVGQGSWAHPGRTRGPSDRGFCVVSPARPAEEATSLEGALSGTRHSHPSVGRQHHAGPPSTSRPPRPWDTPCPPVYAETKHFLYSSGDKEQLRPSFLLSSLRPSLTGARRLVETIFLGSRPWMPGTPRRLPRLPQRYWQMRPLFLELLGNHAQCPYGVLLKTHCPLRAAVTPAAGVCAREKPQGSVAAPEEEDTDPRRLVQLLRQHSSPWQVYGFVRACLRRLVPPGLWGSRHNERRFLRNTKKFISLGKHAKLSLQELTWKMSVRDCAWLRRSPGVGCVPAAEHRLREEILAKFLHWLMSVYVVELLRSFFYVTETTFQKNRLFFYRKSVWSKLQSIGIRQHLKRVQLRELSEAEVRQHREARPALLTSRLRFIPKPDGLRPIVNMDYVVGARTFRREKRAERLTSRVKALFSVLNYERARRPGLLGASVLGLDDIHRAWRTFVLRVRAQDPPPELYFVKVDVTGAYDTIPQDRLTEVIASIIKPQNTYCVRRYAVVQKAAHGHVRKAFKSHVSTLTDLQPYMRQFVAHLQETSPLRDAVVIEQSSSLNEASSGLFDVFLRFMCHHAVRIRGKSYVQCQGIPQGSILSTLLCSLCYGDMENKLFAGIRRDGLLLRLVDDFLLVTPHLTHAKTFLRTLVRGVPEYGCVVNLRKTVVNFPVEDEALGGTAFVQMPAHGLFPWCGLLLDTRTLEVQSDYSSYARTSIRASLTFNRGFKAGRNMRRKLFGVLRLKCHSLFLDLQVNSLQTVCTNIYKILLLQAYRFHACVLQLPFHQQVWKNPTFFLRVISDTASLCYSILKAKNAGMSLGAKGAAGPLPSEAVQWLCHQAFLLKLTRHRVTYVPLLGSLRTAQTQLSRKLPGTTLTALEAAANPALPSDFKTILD
The source made the active and inactive calls. The rule behind the calls is not given here.
Outcome codes: active, inactive

| Smiles | Assigned Class |
| --- | --- |
| Nc1ccc2c(c1N)C(=O)c1ccccc1C2=O | inactive |
| O=C1c2ccccc2C(=O)c2c1ccc1nc(CN3CCSCC3)[nH]c21 | inactive |
| O=C1c2ccccc2C(=O)c2c1ccc1nc(CN3CCN(c4ccccc4)CC3)[nH]c21 | inactive |
| COc1cccc(N2CCN(Cc3nc4ccc5c(c4[nH]3)C(=O)c3ccccc3C5=O)CC2)c1 | inactive |
| CN1CCN(CCc2nc3ccc4c(c3[nH]2)C(=O)c2ccccc2C4=O)CC1 | inactive |
| O=C1c2ccccc2C(=O)c2c1ccc1nc(CN3CCN(Cc4ccccc4)CC3)[nH]c21 | inactive |
| O=C1c2ccccc2C(=O)c2c1ccc1nc(CNCc3ccc(C(F)(F)F)cc3)[nH]c21 | inactive |
| CC(C)N(C)Cc1nc2ccc3c(c2[nH]1)C(=O)c1ccccc1C3=O | inactive |
| O=C1c2ccccc2C(=O)c2c1ccc1nc(CN3CCC(CCCC4CCNCC4)CC3)[nH]c21 | active |
| O=C1c2ccccc2C(=O)c2c1ccc1nc(CN(Cc3ccccn3)Cc3ccccn3)[nH]c21 | inactive |

====

Entries and their measured pIC50 follow.
biological target: Telomerase reverse transcriptase (Homo sapiens); test: Inhibition of TERT activity in human H1299 cells homogenates incubated for 5 mins by TRAP assay
pIC50: −log10 of the molar value.

| Smiles | pIC50 |
| --- | --- |
| CN1CCN(Cc2nc3ccc4c(c3[nH]2)C(=O)c2ccccc2C4=O)CC1 | < 5.00 |
| CCN1CCN(Cc2nc3ccc4c(c3[nH]2)C(=O)c2ccccc2C4=O)CC1 | < 5.00 |
| O=C1c2ccccc2C(=O)c2c1ccc1nc(CN3CCC(CCCC4CCNCC4)CC3)[nH]c21 | 5.30 |

====

target: Telomerase reverse transcriptase (Homo sapiens, UniProt O14746); assay: Inhibition of TERT transcriptional activity in human H1299 cells assessed SEAP activity at 1 uM incubated for 24 hrs by SEAP assay; assay type: cell-based; design: scale not given: the % may be the effect or the level left
Lab note: anything with Activity at or over 90% counts as class 1; the rest go in class 0.

| Smiles | Assigned Class |
| --- | --- |
| CN(Cc1nc2ccc3c(c2[nH]1)C(=O)c1ccccc1C3=O)Cc1c2ccccc2cc2ccccc12 | class 1 |
| O=C1c2ccccc2C(=O)c2c1ccc1nc(CCl)[nH]c21 | class 0 |
| O=C1c2ccccc2C(=O)c2c1ccc1nc(CNCc3cccc(C(F)(F)F)c3)[nH]c21 | class 0 |
| C=CCN1CCN(Cc2nc3ccc4c(c3[nH]2)C(=O)c2ccccc2C4=O)CC1 | class 0 |
| O=C1c2ccccc2C(=O)c2c1ccc1nc(CN3CCN(c4ncccn4)CC3)[nH]c21 | class 1 |
| O=C1c2ccccc2C(=O)c2c1ccc1nc(CNCc3ccc4c(c3)OCO4)[nH]c21 | class 0 |
| O=C1c2ccccc2C(=O)c2c1ccc1nc(CCN3CCN(c4ncccn4)CC3)[nH]c21 | class 0 |
| CN(CCc1ccccn1)Cc1nc2ccc3c(c2[nH]1)C(=O)c1ccccc1C3=O | class 1 |
| O=C1c2ccccc2C(=O)c2c1ccc1nc(CN3CCOCC3)[nH]c21 | class 1 |
| CN1CCN(CCc2nc3ccc4c(c3[nH]2)C(=O)c2ccccc2C4=O)CC1 | class 0 |
